B1: Peroxisome proliferator-activated receptor delta, residues 71 to 145; numbered along this chain, Q03181 (parent)
chain: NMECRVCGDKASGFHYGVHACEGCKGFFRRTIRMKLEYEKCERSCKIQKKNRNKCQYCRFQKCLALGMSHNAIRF

- Variants of: B1
- TEST SUMMARY: abundance fitness (aPCA) (normalised: wild type 0, dead -1); higher = more abundant; growth selection in yeast, the domain comes from the species named
- DETAILS: Homo sapiens
Classify on abundance fitness using Low = under -0.3, Medium = from -0.3 up to -0.08, High = -0.08 and over

Q: Form: Item = C45F ; Class = ?
Ans: Low

Q: Form: Item = S69W ; Class = ?
Ans: Medium

Q: Form: Item = T31A ; Class = ?
Ans: Medium

Q: Form: Item = H70Y ; Class = ?
Ans: Medium

Q: Form: Item = K49G ; Class = ?
Ans: High

Q: Form: Item = I73M ; Class = ?
Ans: High

Q: Form: Item = H15G ; Class = ?
Ans: Medium

Q: Form: Item = I73E ; Class = ?
Ans: High

Q: Form: Item = R74P ; Class = ?
Ans: High

Q: Form: Item = I73G ; Class = ?
Ans: High

Q: Form: Item = K49W ; Class = ?
Ans: High

Q: Form: Item = F14R ; Class = ?
Ans: Medium

Q: Form: Item = C58V ; Class = ?
Ans: Low

Q: Form: Item = N53Y ; Class = ?
Ans: Medium

Q: Form: Item = C58Y ; Class = ?
Ans: Low

Q: Form: Item = F14L ; Class = ?
Ans: High

Q: Form: Item = R30K ; Class = ?
Ans: High

Q: Form: Item = F28T ; Class = ?
Ans: Low

Q: Form: Item = S12L ; Class = ?
Ans: Low

Q: Form: Item = A20V ; Class = ?
Ans: High

Q: Form: Item = Y16M ; Class = ?
Ans: Medium

Q: Form: Item = L66S ; Class = ?
Ans: High

Q: Form: Item = L66D ; Class = ?
Ans: Low

Q: Form: Item = N71W ; Class = ?
Ans: Low

Q: Form: Item = K49M ; Class = ?
Ans: High

Q: Form: Item = L64F ; Class = ?
Ans: Low

Q: Form: Item = H19S ; Class = ?
Ans: High

Q: Form: Item = L64T ; Class = ?
Ans: Medium

Q: Form: Item = L36H ; Class = ?
Ans: Medium

Q: Form: Item = L64D ; Class = ?
Ans: Low

Q: Form: Item = Y57G ; Class = ?
Ans: Low

Q: Form: Item = E3V ; Class = ?
Ans: Medium

Q: Form: Item = K50L ; Class = ?
Ans: High

Q: Form: Item = F28N ; Class = ?
Ans: Low

Q: Form: Item = E37F ; Class = ?
Ans: Medium

Q: Form: Item = L36F ; Class = ?
Ans: Medium

Q: Form: Item = Q56C ; Class = ?
Ans: High

Q: Form: Item = Q61C ; Class = ?
Ans: Low

Q: Form: Item = F28Y ; Class = ?
Ans: Medium

Q: Form: Item = M34R ; Class = ?
Ans: Medium

Q: Form: Item = V18L ; Class = ?
Ans: Medium

Q: Form: Item = K46Y ; Class = ?
Ans: High

Q: Form: Item = K10W ; Class = ?
Ans: Medium

Q: Form: Item = E22G ; Class = ?
Ans: Low

Q: Form: Item = A65L ; Class = ?
Ans: Medium
